- TEST TARGET: purified milk xanthine oxidase (Bos taurus, UniProt P80457)
- Sequence (P80457 whole entry): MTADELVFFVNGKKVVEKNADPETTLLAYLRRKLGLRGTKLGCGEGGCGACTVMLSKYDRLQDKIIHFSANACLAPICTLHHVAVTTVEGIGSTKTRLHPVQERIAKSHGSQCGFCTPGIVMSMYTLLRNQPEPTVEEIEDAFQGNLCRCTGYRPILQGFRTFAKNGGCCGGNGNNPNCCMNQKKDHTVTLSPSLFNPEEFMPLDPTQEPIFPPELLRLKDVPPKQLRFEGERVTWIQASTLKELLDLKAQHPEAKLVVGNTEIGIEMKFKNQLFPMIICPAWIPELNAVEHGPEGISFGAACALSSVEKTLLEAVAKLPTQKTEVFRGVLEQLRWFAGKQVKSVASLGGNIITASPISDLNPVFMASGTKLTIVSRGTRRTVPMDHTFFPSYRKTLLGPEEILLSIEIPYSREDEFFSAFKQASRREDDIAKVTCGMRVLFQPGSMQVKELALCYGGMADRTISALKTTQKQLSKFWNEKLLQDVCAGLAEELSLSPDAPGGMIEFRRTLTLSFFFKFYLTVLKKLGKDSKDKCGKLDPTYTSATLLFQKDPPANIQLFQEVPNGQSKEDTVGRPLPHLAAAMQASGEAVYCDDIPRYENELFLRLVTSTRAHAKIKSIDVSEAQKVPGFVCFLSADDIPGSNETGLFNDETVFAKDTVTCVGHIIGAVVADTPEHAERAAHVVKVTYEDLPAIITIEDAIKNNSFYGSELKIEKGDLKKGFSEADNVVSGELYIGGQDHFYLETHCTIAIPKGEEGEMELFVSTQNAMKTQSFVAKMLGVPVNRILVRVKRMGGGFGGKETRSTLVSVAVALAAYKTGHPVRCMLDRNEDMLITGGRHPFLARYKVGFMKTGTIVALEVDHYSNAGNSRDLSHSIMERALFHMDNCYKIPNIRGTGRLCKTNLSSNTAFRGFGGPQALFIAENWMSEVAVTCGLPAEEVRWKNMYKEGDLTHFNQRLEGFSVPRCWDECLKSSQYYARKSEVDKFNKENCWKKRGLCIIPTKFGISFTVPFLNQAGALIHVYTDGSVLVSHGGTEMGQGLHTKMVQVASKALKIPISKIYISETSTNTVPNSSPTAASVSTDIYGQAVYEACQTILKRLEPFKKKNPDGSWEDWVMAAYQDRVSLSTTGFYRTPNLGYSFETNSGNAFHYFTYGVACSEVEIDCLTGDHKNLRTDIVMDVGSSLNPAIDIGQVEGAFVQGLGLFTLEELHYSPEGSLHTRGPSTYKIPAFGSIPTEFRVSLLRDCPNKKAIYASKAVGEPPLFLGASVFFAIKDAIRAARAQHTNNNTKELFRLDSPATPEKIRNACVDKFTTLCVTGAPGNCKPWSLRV
pIC50: −log10 of the molar value.
OBSERVATION TYPE: pIC50

>>> df
                                   compound  assay_result
0  Cc1cccc(-c2cnn3c(O)ccnc23)c1 [Compound (10), 3-(m-tolyl)pyrazolo[1,5a]pyrimidin-7-ol]          7.00
